System: MCF10a
Experiment: CCK-8 cell viability, MCF10a normal breast epithelial cell line
Assay type: cell-based
Settings: breast epithelial cells (MCF10a), FIG. 4
value type: cytotoxicity against breast epithelial cells, in words

compound="NCC(N)C(=O)Nc1ccc(-c2nc3ccccc3s2)cc1.[Cl][Pt][Cl] (stereo not drawn) [Example L1Pt]" target_or_system=MCF10a result="weak cytotoxicity"
compound="O=C(Nc1ccc(-c2nc3ccccc3s2)cc1)C(C/N=C/c1ccccc1O)/N=C/c1ccccc1O (stereo not drawn) [Example L2]" target_or_system=MCF10a result="weak cytotoxicity"
compound="NCC(N)C(=O)Nc1ccc(-c2nc3ccccc3s2)cc1 (stereo not drawn) [Example L1]" target_or_system=MCF10a result="weak cytotoxicity"
